This collection of values is drawn from ChEMBL document CHEMBL1201862.

Tested on: DMS-114
Assay: NCI tumour cell line growth inhibition, 48 h
Calls of active or inactive are those of the source. Rule as the data show it: active = GI50 up to about 1.1 µM and inactive = higher.
Labels: 1.0 (active), 0.0 (inactive)

>  <compound>
COC(=O)C(C(=O)C(=O)Nc1ccc(Br)cc1)c1nc2ccc(Cl)cc2nc1O (centres undefined)

>  <group label>
0.0

$$$$
>  <compound>
C[N+](C)(C)CCC(=O)CC[N+](C)(C)C

>  <group label>
0.0

$$$$
>  <compound>
Cc1cc(C)nc(/C(=N\NC(N)=O)C(=O)Nc2nc3ccc(C)cc3s2)c1

>  <group label>
0.0

$$$$
>  <compound>
CCN(CC)CCCN(c1cc(OC)cc2nccnc12)S(=O)(=O)c1ccc(C)cc1

>  <group label>
0.0

$$$$
>  <compound>
CC1=C2C3OC(=O)C(C)C3CCC2(C)C=C/C1=N\c1ccccc1 (centres undefined)

>  <group label>
0.0

$$$$
>  <compound>
O=c1nc(NC(c2ccccc2)(c2ccccc2)c2ccccc2)ccn1CCCl

>  <group label>
0.0

$$$$
>  <compound>
COc1nc(C(=O)O)c(Cl)c(OC)c1Cl

>  <group label>
0.0

$$$$
>  <compound>
Nc1nc(CCC(=O)Nc2cccc(C(F)(F)F)c2)cc(-c2ccc3ccccc3c2)n1

>  <group label>
0.0

$$$$
>  <compound>
O=C(NCCCl)SCCO

>  <group label>
0.0

$$$$
>  <compound>
O=C1C(Cl)N(c2ccccc2[N+](=O)[O-])C1c1c[nH]c2ccccc12 (centres undefined)

>  <group label>
0.0

$$$$
>  <compound>
CC(=O)OCCOCNC(=S)N/N=C(\C)c1cnccn1

>  <group label>
0.0

$$$$
>  <compound>
COC(=O)[C@@]12C3=NO[C@]1(C(=O)OC)C(O[Si](C)(C)C(C)(C)C)[C@@H](OC(C)=O)[C@@H](OC(C)=O)[C@@H]2[C@@H](OCc1ccccc1)CC3 (some centres undefined)

>  <group label>
0.0

$$$$
>  <compound>
COc1ccc2oc3cccc(NCCN(C)C)c3c(=O)c2c1

>  <group label>
0.0

$$$$
>  <compound>
CCOC(OCC)C(CC)[Se]c1ccccc1 (centres undefined)

>  <group label>
0.0

$$$$
>  <compound>
CO/C=C(\Br)c1ccc2c(c1)OCO2

>  <group label>
0.0

$$$$
>  <compound>
Cc1nsc2cc(Cl)n(C)c(=O)c12

>  <group label>
0.0

$$$$
>  <compound>
COC(=O)/N=C(\NC(=O)OC)Nc1ccc(Oc2ccccc2)cc1NC=O

>  <group label>
1.0

$$$$
>  <compound>
COc1cc(/C=C/c2ccc(/C=C/c3cc(OC)c(OC)c(OC)c3)cc2)cc(OC)c1OC

>  <group label>
0.0

$$$$
>  <compound>
O=C1CCC2(c3ccccc3)Nc3ccccc3N12 (centres undefined)

>  <group label>
0.0

$$$$
>  <compound>
NC(=O)COC(=O)c1c(Cl)nc2sccn12

>  <group label>
0.0

$$$$
>  <compound>
CC(C)(Oc1ccc(C(=O)c2ccc(Cl)cc2)cc1Cl)C(=O)N1CCN(c2ccccc2)CC1

>  <group label>
0.0

$$$$
>  <compound>
COc1ccc(/C(=N\NC(=S)NN)C(c2ccc(OC)cc2)C2C(=O)Oc3ccccc32)cc1 (centres undefined)

>  <group label>
0.0

$$$$
>  <compound>
Cn1c(=O)nc2n(-c3ccc(Cl)cc3)c3cc(Cl)ccc3nc-2c1=O

>  <group label>
0.0

$$$$
>  <compound>
N=C1c2ccccc2C(=O)c2c(NCCNCCO)ccc(O)c21

>  <group label>
0.0

$$$$
